Molecular target: CDK1/cyclin B1 (Homo sapiens, UniProt P06493)
Construct: purchased Millipore 14-450M
Sequence (P06493 whole entry): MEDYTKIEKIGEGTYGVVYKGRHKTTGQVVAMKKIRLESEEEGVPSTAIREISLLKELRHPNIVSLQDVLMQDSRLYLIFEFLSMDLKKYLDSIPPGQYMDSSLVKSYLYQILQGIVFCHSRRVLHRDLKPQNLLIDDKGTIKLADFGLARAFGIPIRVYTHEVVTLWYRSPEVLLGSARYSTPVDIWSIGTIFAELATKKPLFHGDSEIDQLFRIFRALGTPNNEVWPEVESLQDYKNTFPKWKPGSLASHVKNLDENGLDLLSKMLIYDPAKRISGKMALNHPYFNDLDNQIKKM
Sequence (P14635 whole entry partner): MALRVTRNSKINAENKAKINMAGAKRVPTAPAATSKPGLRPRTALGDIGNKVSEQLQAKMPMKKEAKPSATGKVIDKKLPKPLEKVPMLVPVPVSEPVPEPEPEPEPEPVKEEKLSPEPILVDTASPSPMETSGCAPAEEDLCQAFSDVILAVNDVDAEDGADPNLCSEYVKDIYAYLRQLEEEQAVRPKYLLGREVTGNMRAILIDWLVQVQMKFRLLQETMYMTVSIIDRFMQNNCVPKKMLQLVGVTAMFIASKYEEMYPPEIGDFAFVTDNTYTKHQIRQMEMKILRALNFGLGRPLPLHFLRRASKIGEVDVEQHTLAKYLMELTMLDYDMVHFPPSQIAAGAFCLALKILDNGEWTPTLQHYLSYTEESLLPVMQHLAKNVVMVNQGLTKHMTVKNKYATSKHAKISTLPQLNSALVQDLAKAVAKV
Test: Nanosyn biochemical assay
Conditions: Supp Fig S1D, representative dose response curve, read-out: IC50 CDK1 - Cyclin B
attributeMeasured: pIC50
Please express pIC50 as -log10 of the molar concentration.

Exercise: So what's the measured pIC50 for this one? NS(=O)(=O)c1ccc(Nc2ncc3cc4n(c3n2)C2(CCCCC2)C(=O)NN4)cc1
Key: 7.54

----------
Target: T1, CDK9/cyclin T1 (Homo sapiens, UniProt P50750)
T1 construct: purchased Carna 04-110
T1 sequence (P50750 whole entry): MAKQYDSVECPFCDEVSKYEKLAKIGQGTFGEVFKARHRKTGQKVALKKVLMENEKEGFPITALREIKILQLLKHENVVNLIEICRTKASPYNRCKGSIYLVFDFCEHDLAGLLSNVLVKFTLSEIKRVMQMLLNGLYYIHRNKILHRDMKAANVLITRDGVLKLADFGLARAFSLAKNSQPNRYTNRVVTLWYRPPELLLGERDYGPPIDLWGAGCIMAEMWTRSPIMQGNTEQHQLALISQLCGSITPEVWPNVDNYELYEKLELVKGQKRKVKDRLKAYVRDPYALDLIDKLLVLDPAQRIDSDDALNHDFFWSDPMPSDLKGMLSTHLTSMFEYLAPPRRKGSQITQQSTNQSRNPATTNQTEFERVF
T1 sequence (O60563 whole entry partner): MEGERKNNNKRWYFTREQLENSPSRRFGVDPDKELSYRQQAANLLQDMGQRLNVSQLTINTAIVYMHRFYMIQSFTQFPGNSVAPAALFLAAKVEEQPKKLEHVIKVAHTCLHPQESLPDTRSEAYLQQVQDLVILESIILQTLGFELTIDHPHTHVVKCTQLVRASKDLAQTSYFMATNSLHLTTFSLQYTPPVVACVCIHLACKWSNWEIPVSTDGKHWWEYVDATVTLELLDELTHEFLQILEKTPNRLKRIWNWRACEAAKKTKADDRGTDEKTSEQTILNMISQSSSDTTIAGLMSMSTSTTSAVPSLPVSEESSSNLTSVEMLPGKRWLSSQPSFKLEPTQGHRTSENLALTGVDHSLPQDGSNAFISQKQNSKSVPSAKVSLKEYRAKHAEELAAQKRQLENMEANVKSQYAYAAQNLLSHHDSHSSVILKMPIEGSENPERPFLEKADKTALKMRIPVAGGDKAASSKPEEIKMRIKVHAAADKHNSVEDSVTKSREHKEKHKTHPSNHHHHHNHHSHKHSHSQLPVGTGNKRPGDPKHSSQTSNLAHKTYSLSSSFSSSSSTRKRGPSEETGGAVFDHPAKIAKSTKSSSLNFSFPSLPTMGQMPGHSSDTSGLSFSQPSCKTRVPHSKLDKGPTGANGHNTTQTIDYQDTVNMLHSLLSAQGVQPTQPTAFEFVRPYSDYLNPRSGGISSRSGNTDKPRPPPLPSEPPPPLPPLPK
Assay: NanoBRET live cell target engagement
Format: binding
Conditions: Supp Fig S1E, NanoBRET; read-out: Intracellular IC50 (nM) CDK9/T1
attributeMeasured: IC50

Exercise: # query: IC50 | item COCc1cc(C(=O)Nc2cc([C@H]3CC[C@@H](OC(=O)NC(C)C)C3)[nH]n2)n(C)n1 [PF-07104091, reference compound] | system: T1, CDK9/cyclin T1 (Homo sapiens, UniProt P50750)
Key: > 10000 nM

# credit: paper PMC10905675
